# measured.on: NAD-dependent protein deacylase sirtuin-5, mitochondrial (Homo sapiens)
# Sequence (Q9NXA8 whole entry, the tested form may be a part): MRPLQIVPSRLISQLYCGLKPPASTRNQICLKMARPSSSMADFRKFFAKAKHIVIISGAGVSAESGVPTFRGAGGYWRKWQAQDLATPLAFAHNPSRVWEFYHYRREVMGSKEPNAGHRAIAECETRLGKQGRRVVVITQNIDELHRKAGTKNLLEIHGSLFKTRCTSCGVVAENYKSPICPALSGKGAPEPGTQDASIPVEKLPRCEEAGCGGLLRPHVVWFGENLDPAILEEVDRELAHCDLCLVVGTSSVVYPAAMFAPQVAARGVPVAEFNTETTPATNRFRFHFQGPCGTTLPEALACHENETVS
# assay.name: Binding affinity to N-terminal his-tagged human SIRT5 (34 to 302 residues) expressed in Escherichia coli assessed as dissociation constant using NAD+ as substrate
observable: pKd
One number for each entry, as −log10 of the molar value.

Task: Quick one: pKd of `CCOC(=O)C1=CN(C(=O)c2ccccc2)C=C(C(=O)OCC)C1c1ccsc1` ?
Output: 4.55

src = ChEMBL document CHEMBL5108071
